- Test system: MS2 coat protein
- protocol_description: apparent KD of MS2 coat protein; higher = weaker reporter binding
- conditions: Eterna round: R107; input ligand: none
Lab note: compare apparent KD of MS2 coat protein against 30 nM. Equal or greater, write Fulfilled. Smaller, write Not fulfilled.

CUUGUGGGCGGAAGGAGCGCGAUUACAUAACAUGAGGAUCACCCAUGUAAGAAAUUAUUCAUGCAGGUAGGUCGCCGUUCGUGGG [Same State Arginine B GF9]	Not fulfilled
AAUCAUAACUGAAGGAGCGUCUAUAUUACAUGAGGAUCACCCAUGUUUAUAUGGUAUUAUAGACAGGUAGGUCGCAGAUUUUUUA [JR_SSArginiB_Sub017]	Not fulfilled
AUUAAUAAUAUGUAGACGGCGGAGAAGAGACGAGGACCGGUACGGCCGCCACUCGUGUUAGUUAACAUGAGGAUCACCCAUGUUA [#09 Tryptophan A Same State]	Not fulfilled
UGUAUGGACUGAAGGAGCGGAAAAUAACCAUGAGGAUCACCCAUGGAAUAGGCGAAAGCCAUCCAGGUAGGUCGCAGUCCAUACU	Fulfilled
ACAUGAGGAUCACCCAUGUACAUAAGGGAAGGAGCGCGGUGAAACGCAGGUAGGUCGCCCAUAAUAUCUAACAUUAAAUUCAUGU [LeftA3]	Not fulfilled

Lookup: Item AGGUAUGAUCCGGAUACCAGCGAACAUGAGGAUCACCCAUGUGACCUGAGAUAGGCUCUACGCCCUUGGCAGCCGCGAUCGCAGA [Same State Theophylline B GF11] with apparent KD of MS2 coat protein of 30 nM or above?
Found: Not fulfilled

Lookup: Item CACAUGAGGAUCACCCAUGUCUGAACUGAAGGAGCGCUAAAUAAGGCAGGUAGGUCGCGGAAUCGUGUGUGCAUAUGCACACGCG [9.U] with apparent KD of MS2 coat protein of 30 nM or above?
Found: Not fulfilled

Lookup: Item UAAUAAAUAAAUCCAAGGUGUAGGUCAGAUACCAGCCAGAUAACUGGCCCUUGGCAGCUGAAUAAACCUGAGGAACACCCAGGUA [TheoAS 24 #OpenEnded #MS2Late #AlternativeMS2] with apparent KD of MS2 coat protein of 30 nM or above?
Found: Fulfilled

Lookup: Item GGAUUACGAAAGUAGUCCUCAAGUUCGAGACGAGGACCGGUACGGCCGCCACUCGAACAUGAGGAUCACCCAUGUAGCGAAAGCU [Tryptophan A 22] with apparent KD of MS2 coat protein of 30 nM or above?
Found: Fulfilled

Lookup: Item `GGGUACAUCGCGGCCGCCACUCGUGUAAAUACAUGAGGAUCACCCAUGUCGAUGGAGACAUCGGCGAGGACCGGGUGAUGUACCG` with apparent KD of MS2 coat protein of 30 nM or above?
Found: Fulfilled
